- System: U-251
- Protocol: NCI tumour cell line growth inhibition, 48 h
The source made the active and inactive calls. Cut-off read from the data, not from the text of the source: active = GI50 up to about 1.1 µM and inactive = higher.
Outcomes: y (active), n (inactive)

>>> class_label("FC(F)(F)c1ccc(C2ON=C(c3ccccc3)N2C23CC4CC(CC(C4)C2)C3)cc1 (stereo unspecified)")
"n"
>>> class_label("Cc1cc(Cl)ccc1NC(=O)CC/C(CC(=O)C(C)C)=N\\NC(=O)C[n+]1ccccc1")
"n"
>>> class_label("CC1(C)/C(=N\\Nc2ccc([N+](=O)[O-])cc2[N+](=O)[O-])C2CCC1C2 (stereo unspecified)")
"n"
>>> class_label("O=C1c2ccccc2CC12Cc1ccc3c(c1C2)CCC3 (stereo unspecified)")
"n"
>>> class_label("c1ccc(CC2(c3cc4ccccc4[nH]3)OCCO2)nc1")
"n"
>>> class_label("Nc1ccc(C(=O)NN2C(=O)C(Cl)C2c2cc(Br)cc(Br)c2O)cc1 (stereo unspecified)")
"n"
>>> class_label("COc1ccc(-c2nnc(CCCCCCCCc3nnc(-c4ccc(OC)cc4)n3N)n2N)cc1")
"n"
>>> class_label("CC(=O)O[C@H]1C(N(C)C(=O)c2ccccc2)CC[C@]2(C)C3CC[C@@]4(C)C(CC(O)[C@@H]4C(C)N(C)C)[C@@H]3CCC12 (stereo partly specified)")
"n"
>>> class_label("NCCCOCC(=O)O")
"n"
>>> class_label("Cc1cc(O)c(C(C)C)cc1/N=C/c1ccccc1O")
"n"
>>> class_label("S=c1cc(-c2ccc3c(c2)OCO3)s[nH]1")
"n"
>>> class_label("FC(F)(F)c1cccc(/C=N/C23CC4CC(CC(C4)C2)C3)c1")
"n"
>>> class_label("COc1ccc(C2=C[C@]3(O)CCCN3C[C@@H]2c2ccc(OC)c(OC)c2)cc1")
"y"
>>> class_label("CCOC(=O)NC(C(=O)OCC)C(F)(F)F (stereo unspecified)")
"n"
>>> class_label("COC(=O)/C=C/c1cc(O)c2c(c1)[C@H](C(=O)OC)[C@@H](c1ccc(O)c(O)c1)O2")
"y"
>>> class_label("O=C1N/C(=N/N=C/C(O)C(O)C(O)CO)N/C1=C\\c1c[nH]c2ccccc12 (stereo unspecified)")
"n"
>>> class_label("CN(C)CCNC(=O)c1cccc2c1Oc1c(cccc1[N+](=O)[O-])O2")
"y"
>>> class_label("COc1ccc(Cc2c(-c3ccc(C)cc3)n[nH]c(=O)c2C2C(=O)N(c3ccccc3)N=C2c2ccccc2)cc1 (stereo unspecified)")
"n"
>>> class_label("O=C(O)/C(Cc1ccnc2ccccc12)=N\\O")
"n"
>>> class_label("C=CCc1cccc(/C=N\\N/C(N)=N/O)c1O")
"n"
>>> class_label("COC(=O)/C=C\\n1c(C)cc(=O)[nH]c1=O")
"n"
>>> class_label("COC(=O)c1cc(NC2OCC(OC(C)=O)C(OC(C)=O)C2OC(C)=O)nc(SC)c1C(=O)OC (stereo unspecified)")
"n"
>>> class_label("Cc1c2c3cc(O)ccc3nc-2n(C)c2ccccc12")
"y"
>>> class_label("CCCCCC(=O)Nc1nc(O)c2[nH]cnc2n1")
"n"
>>> class_label("CCn1c2ccccc2c2cc(NC(=O)c3c(C)nc(O)nc3NCCNCCO)ccc21")
"n"
>>> class_label("CCOC(=O)/C(C#N)=C/c1ccc(SCc2ccco2)c([N+](=O)[O-])c1")
"n"
>>> class_label("O=C1CC2CCC(C1)[S+]2[O-] (stereo unspecified)")
"n"
>>> class_label("O=C(/C=C/c1ccccc1)N1CCCCC1")
"n"
>>> class_label("CCOC(=O)c1c(SC(=O)c2ccc(OC)cc2)n(-c2ccccc2)c(=S)n(-c2ccccc2)c1=O")
"n"
>>> class_label("CC#CS(=O)(=O)c1ccccc1")
"n"
>>> class_label("COC(=O)C1=CC(=O)OC1(OO)c1ccc(Br)cc1 (stereo unspecified)")
"n"
